target: anti-CC49 variable region (anti-idiotypic) antibodies in the serum of patient one; assay: HPLC size exclusion; 5 µg cold competitor + ^125I-HuCC49 + patient serum; less complex = more competition

{"binder": "HuCC49 CDR variant L-1 (antibody, V domains shown) VH: QVQLVQSGAEVVKPGASVKISCKASGYTFTDHAIHWVKQNPGQRLEWIGYFSPGNDDFKYNERFKGKATLTADTSASTAYVELSSLRSEDTAVYFCTRSLNMAYWGQGTLVTVSS VL: DIVMSQSPDSLAVSLGERVTLNCKSSQSVLYSSNSKNYLAWYQQKPGQSPKLLIYWASARESGVPDRFSGSGSGTDFTLTISSVQAEDVAVYYCQQYYSYPLTFGAGTKLELK", "percent of complexes (%)": 12.2}
{"binder": "HuCC49 CDR variant H-2 (antibody, V domains shown) VH: QVQLVQSGAEVVKPGASVKISCKASGYTFTDHAIHWVKQNPGQRLEWIGWINAGNGNTKYSQKFQGKATLTADTSASTAYVELSSLRSEDTAVYFCTRSLNMAYWGQGTLVTVSS VL: DIVMSQSPDSLAVSLGERVTLNCKSSQSLLYSGNQKNYLAWYQQKPGQSPKLLIYWASARESGVPDRFSGSGSGTDFTLTISSVQAEDVAVYYCQQYYSYPLTFGAGTKLELK", "percent of complexes (%)": 32.5}
{"binder": "HuCC49 CDR variant L-3 (antibody, V domains shown) VH: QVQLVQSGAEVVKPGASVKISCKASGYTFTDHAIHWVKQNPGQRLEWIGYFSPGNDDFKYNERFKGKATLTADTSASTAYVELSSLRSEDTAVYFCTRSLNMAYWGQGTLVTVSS VL: DIVMSQSPDSLAVSLGERVTLNCKSSQSLLYSGNQKNYLAWYQQKPGQSPKLLIYWASARESGVPDRFSGSGSGTDFTLTISSVQAEDVAVYYCQQYYSTPYSFGAGTKLELK", "percent of complexes (%)": 48.2}
